target of assay: human serum albumin (human) (UniProt P02768)
Sequence (P02768 25-609 limits assumed): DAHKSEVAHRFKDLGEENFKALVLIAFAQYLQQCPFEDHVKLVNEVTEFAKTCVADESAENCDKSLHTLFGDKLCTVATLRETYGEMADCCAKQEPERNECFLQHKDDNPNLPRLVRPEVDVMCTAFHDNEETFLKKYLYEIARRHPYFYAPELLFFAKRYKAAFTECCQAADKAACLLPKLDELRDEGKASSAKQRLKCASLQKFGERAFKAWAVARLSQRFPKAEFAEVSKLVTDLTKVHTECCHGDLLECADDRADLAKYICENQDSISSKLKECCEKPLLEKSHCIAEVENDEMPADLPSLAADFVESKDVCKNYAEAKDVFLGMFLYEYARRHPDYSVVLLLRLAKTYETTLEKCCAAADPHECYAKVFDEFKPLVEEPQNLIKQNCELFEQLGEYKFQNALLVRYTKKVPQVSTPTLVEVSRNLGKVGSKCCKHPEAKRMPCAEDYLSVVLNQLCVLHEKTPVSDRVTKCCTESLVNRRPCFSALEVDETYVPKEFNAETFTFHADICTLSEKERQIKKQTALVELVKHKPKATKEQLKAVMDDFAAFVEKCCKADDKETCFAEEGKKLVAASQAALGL
experiment description: screening ELISA

>  <binder>
SEQ ID NO 168 (designed binder) MLPAPKNLVVSRVTEDSARLSWTTPDAAFDSFFIGYLEPYPPGEAIVLTVPGSERSYDLTGLKPGTEYVVSIQGVKGGKPSDPLSAIFTT

>  <HSA>
1950

$$$$
>  <binder>
SEQ ID NO 133 (designed binder) MLPAPKNLVVSRVTEDSARLSWTAPDAAFDSFPIVYGEAWVTGEAIVLTVPGSERSYDLTGLKPGTEYDVWIEGVKGGELSWPLSAIFTT

>  <HSA>
5000

$$$$
